- Experiment: COS7 lysate on small-molecule microarray, probe aHis, 635 nm (AID 1123);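 note: z-score combines 667nm fluorescence intensity with signal-to-noise per printed compound spot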
- Measurement parameters: COS7 cell lysate, fluorescence, higher = more signal
Task for the reader: assign each of the following compounds its reported composite z-score.
One number for each entry.

In [3]: df
Out[3]:
                                   compound  quantitative_readout
0  COc1ccc([Si](C)(C)[C@@H]2[C@@H](CC(=O)N3Cc4ccccc4C[C@H]3CO)O[C@]3(C(=O)N(c4ccccc4)c4ccccc43)[C@H]2C)cc1                  1.21
1  [N-]=[N+]=Nc1ccccc1C[C@]1(C(=O)O)N=C(c2ccc(OCCCO)cc2)O[C@H]1c1ccccc1                  2.58

For each of the items listed, what is its composite z-score?
1. C=C(/C(=C/C[C@@H](OC(=O)c1ccncc1)c1cccc(OCCO)c1)c1cnc2ccccc2c1)C(C)C
2. CCCCC(=C=CC[C@H](O)c1ccc(OCCO)cc1)C[C@H](O)COCc1ccccc1

1: 1.69; 2: 1.19

For each of the items listed, what is its composite z-score?
1. CCN(CC)c1ccc(N2CC=CC34O[C@@H]5/C=C\CCC(C)OC(=O)C5[C@H]3C(=O)N(C(C)CO)[C@@H]4C2=O)cc1 (stereo partly drawn)
2. C=C(CCCC)C(=O)CC[C@H](OC(C)=O)c1ccc(OCCO)cc1
3. COc1ccc([Si](C)(C)[C@H]2[C@H](CCO)O[C@@]3(C(=O)N(Cc4ccc(N5C(=O)c6ccccc6Oc6ccccc65)cc4)c4ccccc43)[C@@H]2C)cc1

1. -0.175
2. -0.543
3. 0.648

composite z-score lookup needed for C=C(COC)C(=O)CC[C@H](OC(=O)c1cccnc1)c1ccc(CO)o1 , thanks. -0.22
